Items are presented alongside their recorded fraction unbound.
Test: Plasma protein binding in rat
Format: ADME, cell-free
Conditions: read-out: PPB (converted)
Kindly provide the number alone.

The following molecules have reported results that may help.
[[record]]
chem_smiles = "Cn1cc(C(=O)Nc2ccc(-c3ccccc3)c(C(F)(F)F)c2)c(=O)c2ccccc21"
numeric_value = 0.03

[[record]]
chem_smiles = "Cn1cc(C(=O)Nc2ccc(-c3ccccc3)c(C(F)(F)F)c2)c(=O)c2cnccc21"
numeric_value = 0.08


Next, consider the following molecule.
Sure, the documented fraction unbound for Cn1cc(C(=O)Nc2ccc(-c3ccccc3)c(C(F)(F)F)n2)c(=O)c2cnccc21 is 0.02

* * *

Target: Sphingosine 1-phosphate receptor 1 (Homo sapiens, UniProt P21453)
Sequence (P21453 whole entry): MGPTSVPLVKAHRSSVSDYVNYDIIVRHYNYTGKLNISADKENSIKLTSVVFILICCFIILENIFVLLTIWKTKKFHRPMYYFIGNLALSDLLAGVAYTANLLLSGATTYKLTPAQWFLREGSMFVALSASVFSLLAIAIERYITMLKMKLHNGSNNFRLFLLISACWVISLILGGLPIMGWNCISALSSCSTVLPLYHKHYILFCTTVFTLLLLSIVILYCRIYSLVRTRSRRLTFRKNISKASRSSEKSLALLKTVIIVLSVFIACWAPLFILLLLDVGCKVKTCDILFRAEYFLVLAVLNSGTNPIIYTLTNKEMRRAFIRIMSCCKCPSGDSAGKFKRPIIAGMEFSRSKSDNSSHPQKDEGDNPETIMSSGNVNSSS
Assay: Agonist activity at human S1P1 receptor expressed in human U2OS cells co-expressing eGFP assessed as receptor internalization into cytoplasm using Hoechst dye staining relative to 1-(4-(6-benzylbenzofuran-2-yl)-3- fluorobenzyl)azetidine-3-carboxylic acid
Assay type: functional, cell-based
Items are presented alongside their recorded Efficacy.
Could you give me the number in %? Just the number is fine.

[[record]]
chem_smiles = "Cn1cc(C(=O)Nc2ccc(-c3ccccc3)c(C(F)(F)F)c2)c(=O)c2ccccc21"
assay_readout = "Efficacy"
unit_label = "%"
numeric_value = 110

[[record]]
chem_smiles = "Cn1nc(C(=O)Nc2ccc(-c3ccccc3)c(C(F)(F)F)c2)c(=O)c2ccccc21"
assay_readout = "Efficacy"
unit_label = "%"
numeric_value = 130

[[record]]
chem_smiles = "Cn1cc(C(=O)Nc2ccc(-c3ccccc3)c(C(F)(F)F)c2)c(=O)c2cnccc21"
assay_readout = "Efficacy"
unit_label = "%"
numeric_value = 100


Sure, the documented Efficacy for CCCCCCCCc1ccc(CCC(N)(CO)CO)cc1 is 115

Sure, the documented Efficacy for Cn1cc(C(=O)Nc2cc(C(F)(F)F)c(-c3ccccc3)cn2)c(=O)c2ccccc21 is 59

Sure, the documented Efficacy for Cn1cc(C(=O)Nc2ccc(-c3ccccc3)c(C(F)(F)F)c2)c(=O)c2ncccc21 is 86

Sure, the documented Efficacy for Cn1cc(C(=O)Nc2ccc(-c3ccccc3)c(C(F)(F)F)n2)c(=O)c2ccccc21 is 120

Sure, the documented Efficacy for Cn1cc(C(=O)Nc2ccc(-c3ccccn3)c(C(F)(F)F)c2)c(=O)c2ccccc21 is 110

Sure, the documented Efficacy for CCCCCCCCCCCCC/C=C/[C@@H](O)[C@@H](N)COP(=O)(O)O is 91

Sure, the documented Efficacy for Cn1cc(C(=O)Nc2ccc(-c3cccnc3)c(C(F)(F)F)c2)c(=O)c2ccccc21 is 110

Sure, the documented Efficacy for Cn1cc(C(=O)Nc2ccc(-c3ccccn3)c(C(F)(F)F)c2)c(=O)c2cnccc21 is 100

Sure, the documented Efficacy for Cn1cc(C(=O)Nc2ccc(-c3ccccn3)c(C(F)(F)F)n2)c(=O)c2cnccc21 is 130

Sure, the documented Efficacy for Cn1cc(C(=O)Nc2ccc(-c3ccccc3)c(C(F)(F)F)c2)c(=O)c2ccncc21 is 120

Sure, the documented Efficacy for Cn1cc(C(=O)Nc2cnc(-c3ccccc3)c(C(F)(F)F)c2)c(=O)c2ccccc21 is 170

Sure, the documented Efficacy for Cn1cc(C(=O)Nc2ccc(-c3ccccc3)c(C(F)(F)F)c2)c(=O)c2cccnc21 is 100

Sure, the documented Efficacy for Cn1cc(C(=O)Nc2ccc(-c3ccncc3)c(C(F)(F)F)c2)c(=O)c2ccccc21 is 110

Sure, the documented Efficacy for FC(F)(F)c1cccc(-c2noc(-c3cc(-c4ccccc4)c(C(F)(F)F)s3)n2)c1 is 86

Sure, the documented Efficacy for Cn1cc(C(=O)Nc2ccc(-c3ccccc3)c(C(F)(F)F)n2)c(=O)c2cnccc21 is 120

* * *

Test: Plasma concentration in Lewis rat at 1 mg/kg, po after 24 hrs
Format: ADME, organism-based
Parameters: dose 1 mg/kg, route oral
Items are presented alongside their recorded log10(concentration at 24 h).
Remember, log10 of concentration at 24 h, in ng/mL.

[[record]]
chem_smiles = "Cn1cc(C(=O)Nc2ccc(-c3ccccc3)c(C(F)(F)F)n2)c(=O)c2cnccc21"
numeric_value = 2.11

[[record]]
chem_smiles = "Cn1nc(C(=O)Nc2ccc(-c3ccccc3)c(C(F)(F)F)c2)c(=O)c2ccccc21"
numeric_value = 0.99

[[record]]
chem_smiles = "Cn1cc(C(=O)Nc2ccc(-c3ccccc3)c(C(F)(F)F)c2)c(=O)c2ccccc21"
numeric_value = 1.26

[[record]]
chem_smiles = "Cn1cc(C(=O)Nc2ccc(-c3ccccn3)c(C(F)(F)F)c2)c(=O)c2cnccc21"
numeric_value = 2.18


Next, consider the following compound.
Sure, the documented log10(concentration at 24 h) for Cn1cc(C(=O)Nc2ccc(-c3ccccn3)c(C(F)(F)F)c2)c(=O)c2ccccc21 is 0.71

* * *

Assay: Plasma concentration in Lewis rat at 1 mg/kg, po after 24 hrs
Type: ADME, organism-based
Design: dose 1 mg/kg, route oral
Assay Readout: concentration at 24 h (ng/mL)
Could you give me the number in ng/mL? Just the number is fine.

Sure, the documented concentration at 24 h for Cn1cc(C(=O)Nc2ccc(-c3ccccn3)c(C(F)(F)F)n2)c(=O)c2cnccc21 is 140

Sure, the documented concentration at 24 h for Cn1cc(C(=O)Nc2ccc(-c3ccccc3)c(C(F)(F)F)c2)c(=O)c2ccncc21 is 140

Sure, the documented concentration at 24 h for COc1ccncc1C(=O)NC(=O)Nc1ccc(-c2ccccc2)c(C(F)(F)F)c1 is 63

Sure, the documented concentration at 24 h for Cn1cc(C(=O)Nc2ccc(-c3ccccc3)c(C(F)(F)F)c2)c(=O)c2cnccc21 is 350

Sure, the documented concentration at 24 h for Cn1cc(C(=O)Nc2ccc(-c3ccccc3)c(C(F)(F)F)n2)c(=O)c2ccccc21 is 1.3

* * *

Assay: Solubility of the compound in simulated intestinal fluid at pH 7.4
Format: physicochemical
Assay Readout: solubility (µg/mL)
Could you give me the number in µg/mL? Just the number is fine.

[[record]]
chem_smiles = "Cn1cc(C(=O)Nc2ccc(-c3ccccn3)c(C(F)(F)F)n2)c(=O)c2cnccc21"
assay_readout = "solubility"
unit_label = "µg/mL"
numeric_value = 5.8

[[record]]
chem_smiles = "Cn1cc(C(=O)Nc2ccc(-c3ccccc3)c(C(F)(F)F)c2)c(=O)c2ccccc21"
assay_readout = "solubility"
unit_label = "µg/mL"
numeric_value = 11


Sure, the documented solubility for Cn1cc(C(=O)Nc2ccc(-c3ccncc3)c(C(F)(F)F)c2)c(=O)c2ccccc21 is 12

Sure, the documented solubility for COc1ccncc1C(=O)NC(=O)Nc1ccc(-c2ccccc2)c(C(F)(F)F)c1 is 16

Sure, the documented solubility for Cn1cc(C(=O)Nc2ccc(-c3ccccc3)c(C(F)(F)F)c2)c(=O)c2cccnc21 is 5.9

* * *

Test: Solubility of the compound in 0.010 M aqueous hydrogen chloride at pH 7.4
Assay type: physicochemical
Settings: in the assay text read “hydrogen chloride” for “hydrogen chloride at pH 7.4”
Items are presented alongside their recorded solubility.
Could you give me the number in µg/mL? Just the number is fine.

[[record]]
chem_smiles = "Cn1cc(C(=O)Nc2ccc(-c3ccncc3)c(C(F)(F)F)c2)c(=O)c2ccccc21"
assay_readout = "solubility"
unit_label = "µg/mL"
numeric_value = 6.4

[[record]]
chem_smiles = "Cn1cc(C(=O)Nc2ccc(-c3ccccc3)c(C(F)(F)F)c2)c(=O)c2ccccc21"
assay_readout = "solubility"
unit_label = "µg/mL"
numeric_value = 1.3


Sure, the documented solubility for Cn1cc(C(=O)Nc2ccc(-c3ccccn3)c(C(F)(F)F)c2)c(=O)c2ccccc21 is 12

Sure, the documented solubility for Cn1cc(C(=O)Nc2ccc(-c3ccccn3)c(C(F)(F)F)c2)c(=O)c2cnccc21 is 120

* * *

Experiment: Plasma concentration in Lewis rat at 30 mg/kg, po after 24 hrs
Assay type: ADME, organism-based
Set-up: dose 30 mg/kg, route oral
Assay Readout: concentration at 24 h (ng/mL)
Could you give me the number in ng/mL? Just the number is fine.

Sure, the documented concentration at 24 h for FC(F)(F)c1cccc(-c2noc(-c3cc(-c4ccccc4)c(C(F)(F)F)s3)n2)c1 is 1100

* * *

Assay: Apparent permeability of the compound in pig LLC-PK1 cells
Type: ADME, cell-based, Sus scrofa
Classify by measured Papp: fulfilled if it is equal to or exceeds 3 ×10⁻⁶ cm/s, not fulfilled if it is smaller.

// known answers, use as guide
[[record]]
chem_smiles = "Cn1cc(C(=O)Nc2ccc(-c3ccccc3)c(C(F)(F)F)c2)c(=O)c2cnccc21"
assigned_label = "fulfilled"

[[record]]
chem_smiles = "Cn1nc(C(=O)Nc2ccc(-c3ccccc3)c(C(F)(F)F)c2)c(=O)c2ccccc21"
assigned_label = "not fulfilled"

[[record]]
chem_smiles = "COc1ccncc1C(=O)NC(=O)Nc1ccc(-c2ccccc2)c(C(F)(F)F)c1"
assigned_label = "not fulfilled"


Qu. Is it the case that Cn1cc(C(=O)Nc2ccc(-c3ccccc3)c(C(F)(F)F)n2)c(=O)c2cnccc21 has Papp reaching or exceeding 3 ×10⁻⁶ cm/s?
Ans. fulfilled

Qu. Is it the case that Cn1cc(C(=O)Nc2ccc(-c3ccncc3)c(C(F)(F)F)c2)c(=O)c2ccccc21 has Papp reaching or exceeding 3 ×10⁻⁶ cm/s?
Ans. fulfilled

Qu. Is it the case that Cn1cc(C(=O)Nc2ccc(-c3ccccn3)c(C(F)(F)F)c2)c(=O)c2ccccc21 has Papp reaching or exceeding 3 ×10⁻⁶ cm/s?
Ans. fulfilled

Qu. Is it the case that Cn1cc(C(=O)Nc2ccc(-c3ccccc3)c(C(F)(F)F)c2)c(=O)c2ncccc21 has Papp reaching or exceeding 3 ×10⁻⁶ cm/s?
Ans. fulfilled

Qu. Is it the case that Cn1cc(C(=O)Nc2ccc(-c3ccccc3)c(C(F)(F)F)c2)c(=O)c2cccnc21 has Papp reaching or exceeding 3 ×10⁻⁶ cm/s?
Ans. not fulfilled
